Data origin, for the record: ChEMBL document CHEMBL4184287

target: cAMP-dependent protein kinase type I-beta regulatory subunit (Homo sapiens); assay: Binding affinity to recombinant human full length PKA-R1beta expressed in Escherichia coli BL21 DE3-RIL cells assessed as reduction in interaction with AKAP at 20 nM by fluorescence polarization analysis
Active and inactive are the calls of the source. The rule behind the calls is not given here.
quantity kind: Activity

INSERT INTO results (smiles_data, quantity_kind, result) VALUES
  ('CC(C)C[C@H](NC(=O)[C@H](C)NC(=O)[C@]1(C)CCC/C=C/CCC[C@](C)(NC(=O)[C@H](CO)NC(=O)[C@@H](NC(=O)[C@H](CC(C)C)NC(=O)[C@H](Cc2ccccc2)NC(=O)[C@H](CCCCN)NC(=O)[C@H](C)NC(=O)[C@H](CC(C)C)NC(=O)[C@H](CCCCN)NC(=O)[C@H](CCCCN)NC(=O)COCCOCCOCCN)C(C)C)C(=O)N[C@@H](C)C(=O)N[C@@H](C)C(=O)N[C@@H](CCCCN)C(=O)N1)C(=O)N[C@@H](CCCCN)C(=O)O', 'Activity', 'inactive'),
  ('CC(C)C[C@H](NC(=O)[C@H](C)NC(=O)[C@]1(C)CCC/C=C/CCC[C@](C)(NC(=O)[C@H](C)NC(=O)[C@@H](NC(=O)[C@H](CC(C)C)NC(=O)[C@H](Cc2ccccc2)NC(=O)[C@H](CCCCN)NC(=O)[C@H](C)NC(=O)[C@H](CC(C)C)NC(=O)[C@H](CCCCN)NC(=O)[C@H](CCCCN)NC(=O)COCCOCCOCCN)C(C)C)C(=O)N[C@@H](C)C(=O)N[C@@H](CC(C)C)C(=O)N[C@@H](CCCCN)C(=O)N1)C(=O)N[C@@H](CCCCN)C(=O)O', 'Activity', 'inactive'),
  ('CC(C)C[C@@H]1NC(=O)[C@H](C)NC(=O)[C@@](C)(NC(=O)[C@H](CO)NC(=O)[C@@H](NC(=O)[C@H](CC(C)C)NC(=O)[C@H](Cc2ccccc2)NC(=O)[C@H](CCCCN)NC(=O)[C@H](C)NC(=O)[C@H](CC(C)C)NC(=O)[C@H](CCCCN)NC(=O)[C@H](CCCCN)NC(=O)COCCOCCOCCN)C(C)C)CCC/C=C/CCC[C@@](C)(C(=O)N[C@@H](C)C(=O)N[C@@H](CC(C)C)C(=O)N[C@@H](CCCCN)C(=O)O)NC(=O)[C@H](C)NC1=O', 'Activity', 'inactive');
